Hey, just so you know, these numbers are from PubChem BioAssay.

# target under test: Fibroblast growth factor 10 (Homo sapiens)
# experiment summary: FGF10 binders on small-molecule microarrays, primary screen, biochemical, small-molecule microarray, 635 nm fluorescence (AID 1102)
# assay context: FGF10 binding, fluorescence 635 nm, higher = more signal
What composite z-score was measured for each of the following?
Keep the answer to the number alone.

Record O=C1[C@H]2[C@H]3[C@H](O)[C@H](O)CC(=NOC[C@@H](O)COCc4ccco4)[C@@H]3CC[C@H]2C(=O)N1C1CCCCC1 : what is its composite z-score with Fibroblast growth factor 10 (Homo sapiens)? -0.102

Record CON=C(C)CCN1CCc2nc(-c3ccccc3)c(-c3ccccc3)cc2C1 : what is its composite z-score with Fibroblast growth factor 10 (Homo sapiens)? -0.0075

Record COc1ccc(O[C@H]2C=C[C@@H](c3ccccc3)O[C@@H]2CON=C2c3cc(OC)ccc3O[C@H](c3cccc(OC)c3)[C@H]2O)cc1 : what is its composite z-score with Fibroblast growth factor 10 (Homo sapiens)? 0.886

Record COC(=O)[C@@H]1CC[C@H](C)[C@@H](c2ccc(Br)cc2)N1 : what is its composite z-score with Fibroblast growth factor 10 (Homo sapiens)? -0.0529

###

What composite z-score was measured for each of the following?
# experiment summary: small-molecule microarray binders of probe aEGFR, primary screen, biochemical, biotinylated probe, 635/667 nm fluorescence (AID 1097);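 also: probe is a biotinylated anti-EGFR antibody binding compounds printed on slides; score combines fluorescence near 667 nm and signal to noise of each spot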
# assay context: higher = more signal
Keep the answer to the number alone.

Quick check: composite z-score of C#CCCCON=C1C[C@@H](O)[C@@H](O)[C@@H]2[C@@H]3C(=O)N([C@@H](C)c4ccccc4)C(=O)[C@@H]3CC[C@@H]12 ? -0.1

Quick check: composite z-score of CC(CCN1CCCc2nc(C)c(C)cc21)=NOC[C@@H](O)COCc1ccco1 ? 1.15

Quick check: composite z-score of CO[C@H]1COC(=O)CCC[C@H](C)[C@@H](OC)COC(=O)CC=C[C@@H]1C ? -0.0405

Quick check: composite z-score of C[C@@H]1CC[C@H]2C(=O)N3[C@@H](CC[C@@H](C)[C@@H]3c3ccc(Br)cc3)C(=O)N2[C@H]1c1ccc(Br)cc1 ? -0.0987

Quick check: composite z-score of O=C1C=C[C@@H](O)[C@@H]2[C@@H]3C(=O)N(Cc4ccccc4)C(=O)[C@@H]3CC[C@@H]12 ? -0.104

###

# experiment summary: basal 3T3-L1 adipocyte mitochondrial potential changes, profiling panel, cell-based, JC-1 fluorescence, 3T3-L1 adipocytes, 24 h, 100 nL compound (AID 1168); also: test concentration not given here
# assay context: JC-1 mitochondrial fluorescence, higher = more signal, called active from +8 up or from −8 down
Calls of active or inactive are those of the source.
measurement kind: z-score

Quick check: z-score of CC(C)=CCCC(C)=CCON=C1C[C@@H](O)[C@@H](O)[C@@H]2[C@@H]3C(=O)N(Cc4ccc5c(c4)OCO5)C(=O)[C@@H]3CC[C@H]12 ? -0.412 (inactive)

Quick check: z-score of CCN1C(=O)[C@H]2[C@H]3[C@H](O)[C@H](O)CC(=NOCC[C@@H]4C=C[C@H](OC(C)=O)[C@@H](COC(C)=O)O4)[C@@H]3CC[C@H]2C1=O ? -0.132 (inactive)

Quick check: z-score of CC(C)(C)N1C(=O)[C@H]2[C@H]3[C@H](O)[C@H](O)CC(=NOC[C@@H](O)COCc4ccco4)[C@H]3CC[C@H]2C1=O ? 0.856 (inactive)

Quick check: z-score of CON=C(C)CCN1CCc2nc(-c3ccccc3)c(-c3ccccc3)cc2C1 ? -0.144 (inactive)

Quick check: z-score of CO[C@H]1COC(=O)CCC[C@H](C)[C@H](OC)COC(=O)CC=C[C@@H]1C ? -1.7 (inactive)

Quick check: z-score of CCOC(=O)CCN1C(=O)[C@H]2[C@H]3[C@H](O)[C@H](O)CC(=NOCC=C(C)CCC=C(C)C)[C@@H]3CC[C@H]2C1=O ? -0.204 (inactive)

Quick check: z-score of CCN1C(=O)[C@H]2[C@H]3[C@H](O)[C@H](O)CC(=NOC(C)CN4CCCc5nc(C)c(C)cc54)[C@@H]3CC[C@H]2C1=O (stereo not given in full) ? -0.886 (inactive)

Quick check: z-score of COC(OC)[C@@H](C)[C@H](OC)[C@@H](C)[C@H](OC)c1ccccc1 ? -0.14 (inactive)

Quick check: z-score of COc1ccc(COC(=O)NN=C2C[C@@H](O)[C@@H](O)[C@@H]3[C@@H]4C(=O)N(C5CCCCC5)C(=O)[C@@H]4CC[C@@H]23)cc1 ? -0.297 (inactive)

Quick check: z-score of C=C(C)C(=O)OC[C@H]1CN2[C@@H](CC[C@@H](C)[C@@H]2c2ccc(Br)cc2)C(=O)O1 ? -0.142 (inactive)

###

# experiment summary: small-molecule microarray binders of probe aCHRDL2, primary screen, biochemical, biotinylated probe, 635/667 nm fluorescence (AID 1100)
# assay context: higher = more signal
Assign condition met to entries whose composite z-score meets or exceeds -0.5; assign condition not met to the rest.

Dear colleague, could you confirm whether C[C@@H](c1ccccc1)N1C(=O)[C@H]2[C@H]3[C@H](O)[C@H](O)CC(=NOCc4ccccc4)[C@@H]3CC[C@H]2C1=O has composite z-score at or above -0.5? condition met

Dear colleague, could you confirm whether CC(CCN1CCCc2nc(C)c(C)cc21)=NO[C@H](C)c1cn([C@@H]2COC[C@H]2O)nn1 has composite z-score at or above -0.5? condition not met

Dear colleague, could you confirm whether COc1cccc([C@H]2Oc3ccc(OC)cc3C(=NOCC[C@@H]3C=C[C@H](OC(C)=O)[C@@H](COC(C)=O)O3)[C@@H]2O)c1 has composite z-score at or above -0.5? condition met

Dear colleague, could you confirm whether O=C1[C@H]2CCn3c(=O)n(Cc4cc5c(cc4Cl)OCO5)c(=O)n3[C@H]2[C@H](O)[C@@H]2O[C@H]12 has composite z-score at or above -0.5? condition not met

Dear colleague, could you confirm whether O=C1[C@H]2[C@H]3[C@H](O)[C@H](O)CC(=NOC[C@@H](O)COCc4ccco4)[C@@H]3CC[C@H]2C(=O)N1Cc1ccccc1 has composite z-score at or above -0.5? condition not met

###

What composite z-score was measured for each of the following?
# Test system: Wnt5a (protein binding on small-molecule microarray)
# experiment summary: Wnt5a binders on small-molecule microarray, primary screen, biophysical, 635/667 nm fluorescence (AID 1142);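 also: fluorescence read at 667 nm with signal to noise per printed feature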
# assay context: 635 nm fluorescence, higher = more signal
Keep the answer to the number alone.

Quick check: composite z-score of O=C1[C@H]2[C@H]3[C@H](O)[C@H](O)CC(=NOCc4ccccc4)[C@H]3CC[C@H]2C(=O)N1C1CCCCC1 ? -0.0056

Quick check: composite z-score of Cc1cc(C)c(-c2cc([C@H](C)ON=C[C@@H](C)[C@H](OCc3ccccc3)C(C)C)on2)c(C)c1 ? -0.18

Quick check: composite z-score of CCOC(=O)[C@H](CC(C)C)NC(=O)CCC1CC(OC(=O)NCc2ccc3c(c2)OCO3)CC2(CCCC(COC(=O)NCCC(C)C)O2)O1 (some centres undefined) ? 0.0093

Quick check: composite z-score of O=C1C[C@@H](O)[C@@H](O)[C@@H]2[C@@H]3C(=O)N(Cc4ccccc4)C(=O)[C@@H]3CC[C@H]12 ? 0.0217

###

# System: Human papillomavirus type 1a E7 protein (residues 1-88)
# experiment summary: HPV1a E7 small-molecule binders, primary screen, biochemical, small-molecule microarray, residues 1-88, 635 nm (AID 1129)
# assay context: small-molecule microarray binding, fluorescence 635 nm; higher = more signal
measurement kind: composite z-score
Keep the answer to the number alone.

Quick check: composite z-score of CC(C)CON=C1C[C@@H](O)[C@@H](O)[C@@H]2[C@@H]3C(=O)N(Cc4ccccc4)C(=O)[C@@H]3CC[C@H]12 ? 0.502

Quick check: composite z-score of CCOC(=O)[C@H](CC(C)C)NC(=O)CCC1CC(OC(=O)NCc2ccc3c(c2)OCO3)CC2(CCCC(COC(=O)NCCOc3ccccc3)O2)O1 (some centres not stated) ? 1.17

Quick check: composite z-score of O=C1[C@H]2[C@H]3[C@H](O)[C@H](O)CC(=NO[C@@H]4O[C@H](CO)[C@@H](O)[C@H](O)[C@H]4O)[C@H]3CC[C@H]2C(=O)N1C[C@@H]1CCCO1 ? -0.178

Quick check: composite z-score of C[C@@H]1CC[C@H]2C(=O)OC(CN3C(=O)c4ccccc4C3=O)CN2[C@H]1c1ccc(Br)cc1 (some centres not stated) ? 0.731

Quick check: composite z-score of COc1ccc(COC(=O)NN=C2C[C@@H](O)[C@@H](O)[C@@H]3[C@@H]4C(=O)N(c5cccc(Oc6ccccc6)c5)C(=O)[C@@H]4CC[C@H]23)cc1 ? -0.476

Quick check: composite z-score of CO[C@H]1COC(=O)[C@H](C)COC(=O)[C@H](C)NC(=O)CC=C[C@H]1C ? -0.375

Quick check: composite z-score of CCN1C(=O)[C@H]2[C@H]3[C@H](O)[C@H](O)CC(=NOCC(C)C)[C@H]3CC[C@H]2C1=O ? 0.551
